The measured values listed here are drawn from PubChem BioAssay AID248.

- System: L1210 leukemia ip in BDF1 mice, survival T/C
- test-summary: NCI In Vivo Anticancer Drug Screen. Data for tumor model L1210 Leukemia (intraperitoneal) in B6D2F1 (BDF1) mice
- conditions-used: endpoint: mean survival time; dose: 25.0 mg/kg/injection; schedule: Q01DX009 (ip); vehicle: Klucel (hydroxypropylcellulose) (HPC); higher = longer survival
Inconclusive results and toxic doses are left out.
This section presents molecules with their documented T/C values.

Some molecules with recorded T/C:
molecule	parameter-measured	test-result
CC(=O)OCC1OC([S][Sb]([CH3])[CH3])C(OC(C)=O)C(OC(C)=O)C1OC(C)=O (stereo not drawn)	T/C	102 % of control
CCOC(=O)NCC(CCN(C)C)(c1cccc2ccccc12)C(C)CC (stereo not drawn)	T/C	94 % of control
Nc1c(Cl)cc(C(=O)NC2CC2)cc1Cl	T/C	92 % of control

Now examine the next entry.
For record Nc1ccc(-c2ccc3ccccc3n2)cc1 the listed T/C is 94 % of control

----------
- System: L1210 leukemia ip in BDF1 mice, survival T/C
- test-summary: NCI In Vivo Anticancer Drug Screen. Data for tumor model L1210 Leukemia (intraperitoneal) in B6D2F1 (BDF1) mice
- conditions-used: endpoint: mean survival time; dose: 100.0 mg/kg/injection; schedule: Q01DX009 (ip); vehicle: Klucel (hydroxypropylcellulose) (HPC); higher = longer survival
Toxic doses and inconclusive results are not listed.
This section presents compounds with their documented T/C values.

Some compounds with recorded T/C:
compound	T/C
COc1ccc([N+](=O)[O-])cc1NC(=O)Nc1cccc(O)c1	90 % of control
Cc1cccc(Cl)c1NC(=O)N(Cc1ccccc1)Cc1ccccc1	100 % of control
CCCCNC(=O)Nc1ccccc1OCC	93 % of control
O=c1[nH]c2nc3ccccc3nc2c(=O)n1OS(=O)(=O)c1ccccc1	96 % of control
Cc1cccc(C)c1NC(=O)NC(C)C	106 % of control
Cc1ccc(OS(=O)(=O)c2ccc([N+](=O)[O-])cc2)cc1	97 % of control

Per the reported L1210 leukemia ip in BDF1 mice, survival T/C data, CC(=O)c1cccc(NC(=O)Nc2ccc(CCO)cc2)c1 has T/C of 95 % of control

Per the reported L1210 leukemia ip in BDF1 mice, survival T/C data, C/C(C(=O)O)=C(/Br)c1ccc([N+](=O)[O-])cc1 has T/C of 94 % of control

Per the reported L1210 leukemia ip in BDF1 mice, survival T/C data, CCCCOC(=O)c1ccc(NC(=O)Nc2ccc(F)c([N+](=O)[O-])c2)cc1 has T/C of 98 % of control

Per the reported L1210 leukemia ip in BDF1 mice, survival T/C data, CC(C)CCOC(=O)C(O)c1ccccc1 (stereo unspecified) has T/C of 98 % of control

Per the reported L1210 leukemia ip in BDF1 mice, survival T/C data, COc1cc2cc(C)c(C)cc2cc1OC has T/C of 103 % of control

Per the reported L1210 leukemia ip in BDF1 mice, survival T/C data, O=C1OCC/C1=C/CCCC/C=C1\CCOC1=O has T/C of 93 % of control

Per the reported L1210 leukemia ip in BDF1 mice, survival T/C data, Cn1c(O)c(O)c(=O)n(C)c1=O has T/C of 98 % of control
